experimental.details: Compound solubility in water
Format: physicochemical
measurement.name: solubility (µg/mL)

compound | measurement.units | solubility
Cc1cc(-n2cncn2)nc2c(C(=O)NC(C)(C)C3CC3)ncn12 | µg/mL | 27.3
Cc1cc(-c2ccns2)nc2c(C(=O)NC(C3CC3)C(F)(F)F)ncn12 (stereo not shown) | µg/mL | 18
COCc1cc(-c2cc(F)cc(F)c2)nc2c(C(=O)N[C@@H](C)C3CC3)ncn12 | µg/mL | 0.6
Cc1cc(-c2cccc(Cl)c2)nc2c(C(=O)NC(C)(C)C(F)(F)F)ncn12 | µg/mL | 3.7
Cc1cc(C)n2cnc(C(=O)N[C@@H](C)C3CC3)c2n1 | µg/mL | 24.4

P = Cc1cc(-c2ccccc2F)nc2c(C(=O)NC(C)C3CC3)ncn12 (stereo not shown)
Q = Cc1cc(-c2cc(F)cc(F)c2)nc2c(C(=O)N[C@@H](C)C3CC3)ncn12
R = Cc1cc(C)n2cnc(C(=O)NC(C3CC3)C(F)(F)F)c2n1 (stereo not shown)
Asked: // ascending sort on recorded solubility Show the ranking through the labels, in the order asked for.
Given back: Q, P, R

1 = Cc1cc(-c2ccccn2)nc2c(C(=O)NC(C3CC3)C(F)(F)F)ncn12 (stereo not shown)
2 = Cc1cc(-c2cccc(Cl)c2)nc2c(C(=O)NC(C)(C)C)ncn12
Asked: // which entry reports the smaller solubility, 1 or 2 ? Select an item and report its label.
Given back: 2

###

experimental.details: Compound solubility in water
Format: physicochemical
run.parameters: in water
measurement.name: solubility (µg/mL)

compound | measurement.units | test.value
C#CC(C)(C)NC(=O)c1ncn2c(C)cc(-c3cccc4c3OCO4)nc12 | µg/mL | 1.1
Cc1cc(-c2cccc(C(N)=O)c2)nc2c(C(=O)NC(C3CC3)C(F)(F)F)ncn12 (stereo not drawn) | µg/mL | 1.1
Cc1cc(-c2cccc3ncoc23)nc2c(C(=O)N[C@H](C3CC3)C(F)(F)F)ncn12 | µg/mL | 1.1
CCc1cc(-c2ccns2)nc2c(C(=O)NC(C)(C)C)ncn12 | µg/mL | 15.9
Cc1cc(-c2ccc3c(c2)OCO3)nc2c(C(=O)N[C@H](C)C3CC3)ncn12 | µg/mL | 1.1

I = COc1cccc(-c2cc(C)n3cnc(C(=O)NC(C4CC4)C(F)(F)F)c3n2)c1C#N (stereo not drawn)
II = Cc1cc(-c2occc2C#N)nc2c(C(=O)NC(C3CC3)C(F)(F)F)ncn12 (stereo not drawn)
III = Cc1cc(-c2cccc(F)c2)nc2c(C(=O)N[C@H](C3CC3)C(F)(F)F)ncn12
IV = COc1cccc(-c2cc(C)n3cnc(C(=O)N[C@H](C)C4CC4)c3n2)c1
Asked: # rank_down: sort by solubility, max first Show the ranking through the labels, in the order asked for.
Given back: IV, II, I, III
(IV: 8.3 µg/mL, II: 1.9 µg/mL, I: 1.3 µg/mL, III: 0.7 µg/mL)

a = Cc1cc(-c2cc(C#N)co2)nc2c(C(=O)NC(C3CC3)C(F)(F)F)ncn12 (stereo not drawn)
b = Cc1cc(-c2ccc3c(c2)OCO3)nc2c(C(=O)N[C@@H](C)C(F)(F)F)ncn12
c = COc1c(F)cccc1-c1cc(C)n2cnc(C(=O)NC(C)C(F)(F)F)c2n1 (stereo not drawn)
d = Cc1cc(C#N)c(-c2cc(C)n3cnc(C(=O)NC(C4CC4)C(F)(F)F)c3n2)o1 (stereo not drawn)
Asked: # rank_down: sort by solubility, max first Show the ranking through the labels, in the order asked for.
Given back: c, b, a, d

Where do the numbers come from? From patent US9920061B2.
